Molecular target: Cytochrome P450 3A4 (Homo sapiens)
Assay: qHTS Assay for Activators of Cytochrome P450 3A4 (AID 885); further: nearly all actives have a fitted effect of over 65% in size
Conditions: recombinant CYP3A4, Luciferin-PPXE luminescence, 60 min; series mostly up to 57.1 µM
Active and inactive are the calls of the source. The call rests on the fitted dose curve; in most records, active means well fitted activation curve with a large enough effect; inconclusive means small, poorly fitted or top-dose-only effect; inactive means no such curve, though single readings can be large or run the other way.
experimental.endpoint: activity change, positive = activation

CC(=O)OC1CC(OC(C)=O)[C@]2(C)C(CC(OC(C)=O)[C@@]3(C)C4=CC(=O)OC(c5ccoc5)[C@]4(C)CCC32)C1(C)C (stereo not given in full)	inactive
C/C=C/OC(=O)NC(c1ccccc1)[C@]1(C(C)=O)CCOC1=O (stereo not given in full)	-81.2% [at 11.4 µM] (inactive)
CCC1=C2CC[C@H]3C(=O)N(C)C(=O)[C@H]3[C@H]2[C@@]2(C)C(=O)N(CC(=O)OC)C(=O)N2C1=O	inactive
CC[C@@H](c1ccccc1)n1c(=O)n2n(c1=O)[C@H]1[C@H](O)[C@H]3O[C@@H]3/C(=N/OCc3ccccc3)[C@@H]1CC2	-33.4% [at 11.4 µM] (inactive)

Pending molecule:
Consider the molecule shown here: C[C@H]1[C@H](C)CC[C@]2(C(=O)O)CC[C@]3(C)C(=CCC4[C@@]5(C)C[C@@H](O)[C@H](O)[C@@](C)(CO)[C@@H]5CC[C@]43C)[C@H]12 (stereo not given in full) What is its recorded activity change, positive = activation?
inactive

###

Molecular target: Ubiquitin carboxyl-terminal hydrolase 2 (Homo sapiens)
Test: qHTS for Inhibitors of Ubiquitin-specific Protease USP2a Using CHOP2 as the Reporter: K484 Substrate (AID 652173);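 further: cleavage of internally quenched K48 di-ubiquitin substrate measured as rising fluorescence over time; nearly all actives have a fitted effect of over 70% in size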; further: potency means the concentration at half of the fitted maximal effect
Details: USP2 cleavage of DiUb K48 IQF substrate, fluorescence; series mostly up to 57.5 µM
Results filed as inconclusive are left out. The source made the active and inactive calls. Calls come from the whole dose curve; as a rule, active = well fitted inhibition curve with a large enough effect; inconclusive = small, poorly fitted or top-dose-only effect; inactive = flat fitted curve, though single readings scatter.
experimental.endpoint: Potency

The examples below pair each entry with its known result.
O=C(Nc1nc(-c2ccccc2)cs1)c1ccncc1NS(=O)(=O)c1ccccc1Cl	1.53 µM (active)
O=C(Nc1nc(-c2ccccc2)cs1)c1ccncc1NS(=O)(=O)c1ccc(Cl)cc1	1.53 µM (active)
Cc1ccc(S(=O)(=O)Nc2ccccc2C(=O)Nc2cnc(-c3ccccc3)cn2)cc1	3.43 µM (active)
Cn1cnc(S(=O)(=O)Nc2cnccc2C(=O)Nc2nc(-c3ccccc3)cs2)c1	19.3 µM (active)
Cc1ccc(-c2csc(Nc3ccc(S(=O)(=O)Nc4nccs4)cc3)n2)cc1C	4.32 µM (active)
Cc1ccc(S(=O)(=O)Nc2ncccc2C(=O)Nc2nc(-c3ccccc3)cs2)cc1	3.43 µM (active)
O=C(Nc1ccc(S(=O)(=O)Nc2nccs2)cc1)c1ccc(-c2ccccc2)cc1	24.3 µM (active)
COc1cccc(-c2csc(NC(=O)c3ccncc3NS(=O)(=O)c3ccc(C)cc3)n2)c1	1.72 µM (active)

Count: 2. Required value per item: Potency.
1. N#Cc1cnc(NS(=O)(=O)c2ccc(NC(=O)Cc3ccc(Cl)c(Cl)c3)cc2)s1
2. O=C(Nc1nc(-c2ccccc2)cs1)c1ccncc1NS(=O)(=O)c1ccc(C(F)(F)F)cc1

3.43 µM (active)
3.06 µM (active)

For each entry beneath this line, provide reported Potency.
1. Cc1ccc(S(=O)(=O)Nc2cnccc2C(=O)Nc2nc(-c3ccc(Cl)cc3)cs2)cc1
2. CC(=O)Nc1ncc(S(=O)(=O)Nc2cnccc2C(=O)Nc2nc(-c3ccccc3)cs2)s1
3. Cc1ccc(S(=O)(=O)Nc2cnccc2C(=O)Nc2ccc(-c3nn[nH]n3)cc2)cc1
4. Cc1ccc(-c2cc(C(=O)Nc3ccc(C#N)cc3)c3ccccc3n2)cc1C

["2.17 µM (active)", "10.9 µM (active)", "8.63 µM (active)", "12.2 µM (active)"]

Would you be so kind as to report Potency for each listed record?
1. Cc1cc(S(=O)(=O)Nc2cnccc2C(=O)Nc2nc(-c3ccccc3)cs2)c(C)o1
2. O=C1CCCc2cc(S(=O)(=O)Nc3cnccc3C(=O)Nc3nc(-c4ccccc4)cs3)ccc2N1
3. Cc1ccc(S(=O)(=O)Nc2cnccc2C(=O)Nc2nc(-c3nc4ccccc4s3)cs2)cc1
4. Cc1ccc(-c2cc(C(=O)Nc3ccc(S(=O)(=O)N(C)Cc4nccs4)cc3)c3ccccc3n2)cc1C
5. Cc1ccc(S(=O)(=O)Nc2cnccc2C(=O)Nc2cccc3ccccc23)cc1
6. Cc1cccc(S(=O)(=O)Nc2cnccc2C(=O)Nc2nc(-c3ccccc3)cs2)c1
7. Cc1ccc(S(=O)(=O)Nc2cnccc2C(=O)Nc2nc(-c3cc(Br)cs3)cs2)cc1

1: 3.43 µM (active); 2: 7.69 µM (active); 3: 1.72 µM (active); 4: 3.85 µM (active); 5: 7.69 µM (active); 6: 2.73 µM (active); 7: 2.17 µM (active)

Go through the list and state Potency for each entry.
1. Cc1ccc(-c2cc(C(=O)Nc3ccc(S(C)(=O)=O)cc3)c3ccccc3n2)cc1C
2. CC(C)(C)NC(=O)N1CCC(C(=O)Nc2ccc([S+](=O)([O-])Nc3nccs3)cc2)CC1

6.85 µM (active)
inactive

I have 5 compounds here; please give me Potency for each one.
1. Cc1ccc(-c2cc(C(=O)NCc3ccc(S(N)(=O)=O)cc3)c3ccccc3n2)cc1C
2. CCC(=O)OC1CCC(C(=O)Nc2ccc([S+](=O)([O-])Nc3nccs3)cc2)CC1 (configuration not stated)
3. CCCOC1CCC(C(=O)Nc2ccc([S+](=O)([O-])Nc3nccs3)cc2)CC1 (configuration not stated)
4. O=C(O)C1CCC(C(=O)Nc2ccc([S+](=O)([O-])Nc3nccs3)cc2)CC1 (configuration not stated)
5. Nc1ccc(S(=O)(=O)Nc2cnccc2C(=O)Nc2nc(-c3ccccc3)cs2)cc1

1. 9.68 µM (active)
2. inactive
3. inactive
4. inactive
5. 17.2 µM (active)

Record Potency for all entries; do not skip any.
1. Cc1ccc(-c2cc(C(=O)Nc3ccc4ccccc4c3)c3ccccc3n2)cc1C
2. O=C(Nc1ccc(S(=O)(=O)Nc2nccs2)cc1)c1ccnc2ccccc12
3. Cc1ccc(S(=O)(=O)Nc2ccccc2C(=O)Nc2ncc(-c3ccccc3)o2)cc1
4. Cc1ccc(S(=O)(=O)Nc2cnccc2C(=O)Nc2nc(-c3ccco3)cs2)cc1

1. 19.3 µM (active)
2. 21.7 µM (active)
3. 2.43 µM (active)
4. 4.32 µM (active)

The values you see were collected from PubChem BioAssay (NCATS).
